The following compounds are shown together with reported inhibition values.
target: AP-2 complex subunit beta (Homo sapiens); assay: inhibitors of arrestin peptide binding to AP2, pilot screen, biochemical, validation set, GST-AP2 beads, flow cytometry (AID 504541); settings: FITC arrestin peptide, at 10 µM, stronger effect = higher value, AP2 beta2 appendage fragment, R879A mutant;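 further: AP2 carries R879A mutation and is captured from E. coli lysate; bead-bound FITC arrestin peptide fluorescence measuring arrestin peptide binding to AP2; 0% = DMSO wells and 100% = excess unlabeled arrestin peptide control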
The source made the active and inactive calls.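 How the source made its calls: active means inhibition above 54%, about 3 SD of non-fluorescent compounds; inactive means the rest.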

Provide one value: measured inhibition of Cc1cc(C(=O)NC(CC(C)C)C(=O)O)cc(C)c1[N+](=O)[O-] (stereo unspecified)
1.45% (inactive)

Please give the documented inhibition of COc1ccc(CCNC(=S)NC(=O)/C=C/c2ccc(C)cc2)cc1OC
13.3% (inactive)

Please give measured inhibition of the following entry: COc1ccc(OC)c(-c2oc3ccccc3c(=O)c2O)c1
-1.44% (inactive)

Specify measured inhibition for COc1ccc(C(=O)Nc2ccc(OC)c([N+](=O)[O-])c2)cc1Br .
7.87% (inactive)

Retrieve inhibition measured for Clc1ccc(OCCCN2CCCCC2)c(Br)c1 and print it.
-6.22% (inactive)

Return value of inhibition for input CCc1cc(=O)oc2cc(OCC=C(C)C)ccc12 , no commentary.
-1.05% (inactive)

For the compound CC(=O)CCc1oc2ccccc2c1-c1ccccc1 , give its measured inhibition value.
-8% (inactive)

Supply inhibition value. Item: CCOC(=O)Nc1ccc2c(c1)N(C(=O)CCN1CCOCC1)c1ccccc1S2
9.79% (inactive)

Please look at this compound and report its inhibition: O=C(CCCN1CC=C(n2c(=O)[nH]c3ccccc32)CC1)c1ccc(F)cc1
-14.3% (inactive)

Provide measured inhibition value, entry: Cc1oc2c(CN3CCCC3)c(O)ccc2c(=O)c1-c1ccc(Cl)cc1
6.26% (inactive)

Input COc1ccc(C(=O)Nc2ccccc2C(=O)NCCCn2ccnc2)cc1 , output reported inhibition.
7.74% (inactive)

* * *

assay: LAP4-GFP expression modulators in yeast, confirmation, cell-based, cherry picks, flow cytometry, mother/daughter gates (AID 2271);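 further: ratio of sample to DMSO plate mean so 100% equals DMSO level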; conditions: S. cerevisiae LAP4-GFP strain, 3 h, measured here: daughter cell gate response, at 10 µM, stronger effect = higher value, 100 means same as DMSO control
Reported GFP response relative to DMSO is given for each of the following molecules.
Remember to put the unit after the number in your answer.

Use the examples below as a reference point.
chemical string: COc1ccccc1-c1noc(-c2cc(OC)c(OC)c(OC)c2)n1
GFP response relative to DMSO: 105%

chemical string: CCc1noc(C)c1C(=O)Nc1nc(-c2ccc(Cl)cc2Cl)cs1
GFP response relative to DMSO: 96%

chemical string: Cc1[nH][nH]c(=O)c1C(c1ccc(-c2ccc(Cl)c(Cl)c2)o1)c1c(C)[nH][nH]c1=O
GFP response relative to DMSO: 142%

Input COc1cc(NC(=O)c2ccccc2)ccc1NC(=O)c1cc2ccccc2o1 , output reported GFP response relative to DMSO.
97.5%

Respond only with GFP response relative to DMSO recorded for O=C1C(Cl)=C(Nc2ccccc2O)C(=O)N1CCc1ccccc1
101%

Entry Nc1ccc(C(=O)N/N=C/c2ccccc2)cc1 needs its GFP response relative to DMSO filled in; supply it.
99.1%

Identify measured GFP response relative to DMSO associated with Nc1nc2c(ncn2COCCO)c(=O)[nH]1
97.9%

* * *

test: RPL19A-GFP modulators, yeast TOR pathway, confirmation, cell-based, S. cerevisiae, flow cytometry, cherry picks, mother/daughter gates (AID 2270); conditions: S. cerevisiae RPL19A-GFP strain, 3 h, measured here: daughter cell gate, at 10 µM, stronger effect = lower value, 100 = same GFP as DMSO wells
# GFP response vs DMSO annotations
Report the value in % with no unit label.

// known answers, use as guide
molecule: CCCC(=O)c1ccc(N2CCN(C(=O)c3ccc(Br)cc3)CC2)c(F)c1
GFP response vs DMSO [%]: 95.9
//
molecule: CCN(CC)S(=O)(=O)c1cccc(C(=O)NCC(c2ccccc2)N(C)C)c1 (stereo unspecified)
GFP response vs DMSO [%]: 102
//
molecule: O=c1[nH]c(CN2CCCCC2)nc2c1C1(CCCCC1)Cc1ccccc1-2
GFP response vs DMSO [%]: 100

For the molecule Cc1c(C(=O)NCCSCc2cccc(C(F)(F)F)c2)cnn1-c1ccc(F)cc1 , give its measured GFP response vs DMSO value.
103

Determine its reported GFP response vs DMSO: CCc1cc(=O)oc2c(CN3CCCC3)c(O)c(Cl)cc12
101

Tell me its GFP response vs DMSO given COC(=O)c1ccccc1NC(=O)c1nc(S(=O)(=O)Cc2ccccc2)ncc1Cl as the entry.
101
